Attribution: the RNAGym collection of RNA variant scans (doi:10.1101/gad.245936.114)

B1: tRNA (parent)
chain: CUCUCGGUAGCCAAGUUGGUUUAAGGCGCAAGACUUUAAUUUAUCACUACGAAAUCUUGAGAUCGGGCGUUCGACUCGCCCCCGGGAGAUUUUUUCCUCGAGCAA

variants of: B1; assay: nonsense suppression (GFP-seq) (ratio to wild type); higher = more function; SUP4oc tRNA, yeast GFP reporter sort-seq
Fewer inactive variants are shown than the library holds.
Class T: nonsense suppression at least 0.4. Class F: nonsense suppression below 0.4.

VARIANT_LABEL: U17C G28A
ASSIGNED_CLASS: T

VARIANT_LABEL: U8G G67C G85C
ASSIGNED_CLASS: F

VARIANT_LABEL: U20A U22C
ASSIGNED_CLASS: T

VARIANT_LABEL: U8C C12A C68A C72U
ASSIGNED_CLASS: F

VARIANT_LABEL: A74G C75A G86C
ASSIGNED_CLASS: F

VARIANT_LABEL: A14U G18C C80U
ASSIGNED_CLASS: F

VARIANT_LABEL: C82U
ASSIGNED_CLASS: T

VARIANT_LABEL: C12G C68G G69U A89U
ASSIGNED_CLASS: F

VARIANT_LABEL: G6U U63G U71C G85U A89C
ASSIGNED_CLASS: F

VARIANT_LABEL: C3A G15U G25A
ASSIGNED_CLASS: F

VARIANT_LABEL: U17A C29U
ASSIGNED_CLASS: T

VARIANT_LABEL: C11A G26A U70A
ASSIGNED_CLASS: F

VARIANT_LABEL: A30G C64U
ASSIGNED_CLASS: F

VARIANT_LABEL: C1A G18C
ASSIGNED_CLASS: F

VARIANT_LABEL: A14G A87U
ASSIGNED_CLASS: F

VARIANT_LABEL: C27U G28A
ASSIGNED_CLASS: F

VARIANT_LABEL: G6C C77G
ASSIGNED_CLASS: F

VARIANT_LABEL: U2A G84A A89G
ASSIGNED_CLASS: F

VARIANT_LABEL: A13C A31C U76A
ASSIGNED_CLASS: F

VARIANT_LABEL: A30U G32U C56A U58G
ASSIGNED_CLASS: T

VARIANT_LABEL: C11G A30G G67U
ASSIGNED_CLASS: F

VARIANT_LABEL: G6C C12G C72G C75U G85C
ASSIGNED_CLASS: F

VARIANT_LABEL: C1A C3A U8A G88A
ASSIGNED_CLASS: F

VARIANT_LABEL: C75U G78A
ASSIGNED_CLASS: T

VARIANT_LABEL: A31U A60C G66C U70A G85A
ASSIGNED_CLASS: F

VARIANT_LABEL: A9U G84A
ASSIGNED_CLASS: F

VARIANT_LABEL: C12U A13U
ASSIGNED_CLASS: T

VARIANT_LABEL: C12U
ASSIGNED_CLASS: T

VARIANT_LABEL: U16G U76G G86C
ASSIGNED_CLASS: F

VARIANT_LABEL: U20C U63G
ASSIGNED_CLASS: F

VARIANT_LABEL: U4C C12G C64G G66C
ASSIGNED_CLASS: F

VARIANT_LABEL: C12U C81A
ASSIGNED_CLASS: F

VARIANT_LABEL: C27A C83G G84C
ASSIGNED_CLASS: F

VARIANT_LABEL: C29U G86C
ASSIGNED_CLASS: F

VARIANT_LABEL: A23G G67U
ASSIGNED_CLASS: F

VARIANT_LABEL: C3U A13G C34G
ASSIGNED_CLASS: T

VARIANT_LABEL: U21C A54U U57C G59A A89G
ASSIGNED_CLASS: F

VARIANT_LABEL: U22C G61U U63C
ASSIGNED_CLASS: F

VARIANT_LABEL: A33G G61C
ASSIGNED_CLASS: F

VARIANT_LABEL: U21G A23C
ASSIGNED_CLASS: F

VARIANT_LABEL: C81A G85U
ASSIGNED_CLASS: F

VARIANT_LABEL: A13U A14C U35A A60C C72U
ASSIGNED_CLASS: F

VARIANT_LABEL: A24C A87G
ASSIGNED_CLASS: T

VARIANT_LABEL: G6U A60G G61A G65C
ASSIGNED_CLASS: F

VARIANT_LABEL: A54G G61A U76C C77G
ASSIGNED_CLASS: F

VARIANT_LABEL: A33G U55A A74C
ASSIGNED_CLASS: F
